- system-under-test: T1, recombinant human interleukin-4 (human, UniProt P05112 25-153)
- T1 sequence (looked up): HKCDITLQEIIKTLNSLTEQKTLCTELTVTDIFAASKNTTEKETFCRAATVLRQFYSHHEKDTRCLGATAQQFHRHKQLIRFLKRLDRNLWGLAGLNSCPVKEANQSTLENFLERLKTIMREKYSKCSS
- test: cell-based or functional assay
assay-metric: IL-4 induced CD23 IC50 (nM)
Please respond with the number in nM and leave the unit unwritten.

Looking up Example 1 antibody comprising SEQ ID NO:1 and SEQ ID NO:2 (human IL-4 specific monoclonal antibody) (antibody, human IgG1, V domains shown, also called Ex. 1; mAb as defined by CDRs as described in claim 2a)) VH: QVQLVESGGGVVQPGRSLRLSCAASGFTFSSYAMHWVRQAPGKGLEWVTFIWDDGSFKYYAESVKGRFTISRDNSKNTLYLQMNSLRAEDTAVYYCAREGSWSPDIFDIWGQGTMVTVSS VL: AIQLTQSPSSLSASVGDRVTITCRASQGISRALAWYQQKPGKAPKLLIYDASSLESGVPSRFSGSGSGTDFTLTISSLQPEDFATYYCQQFNSYPITFGQGTRLEIKR , I see its IL-4 induced CD23 IC50 listed as 0.334

Lab note: Example 5 antibody comprising SEQ ID NO:33 and SEQ ID NO:34 (antibody, human IgG1, V domains shown, also called Ex. 5) VH: QVQLVESGGGVVQPGRSLRLSCAASGFTFSCCGMHWVRQAPGKGLEWVAVIWYDGSNKYYADSVKGRFTISRDTSKNTLYLQMNSLRAEDTAVYYCATDSSGSFYEYFQHWGQGTLVTVSS VL: AIQLTQSPSSLSASVGDRVTITCRASQGINSALAWYQQKPGKAPKLLIYDASSLESGVPSRFSGSGSGTDFTLTISSLQPEDFATYYCQQFNSYPYTFGQGTKLEIKR gave IL-4 induced CD23 IC50 of 2.83

Looking up Example 4 antibody comprising SEQ ID NO:25 and SEQ ID NO:26 (antibody, human IgG1, V domains shown, also called Ex. 4) VH: QVQLVQSGAEVKKPGSSVKVSCKASGDTFSSYAISWVRQAPGQGFEWMGGIIPVIGTVNYEERFQDRVTITADNSTSTAYMELTSLRSEDTAVYFCGREEGFLDYWGQGTLVTVSS VL: AIQLTQSPSSLSASVGDRVTITCRASQGISSALAWYQQKPGKAPKLLIYDASSLESGVPSRFSGSGSGTDFTLTISSLQPEDFATYYCQQFNSYPLLTFGGGTKVEIKR , I found its IL-4 induced CD23 IC50 recorded as 0.848

Note to self: IL-4 induced CD23 IC50 recorded for Example 3 antibody comprising SEQ ID NO:17 and SEQ ID NO:18 (antibody, human IgG1, V domains shown, also called Ex. 3) VH: QVQLVESGGGMVQPGRSLRLSCAASGFTLSSYGMHWVRQAPGKGLEWVTVIWYDGNNQYYADSVKGRFTISRDNSKNTLYLQMNSLRAEDTAVYYCAREGSWSPDIFDIWGQGTMVTVSS VL: AIQLTQSPSSLSASVGDRVTITCRASQGISSYLAWYQQKPGKAPKLLIYDASSLESGVPSRFSGSGSGTDFTLTISSLQPEDFATYYCQQFNSYPITFGQGTRLEIKR was 0.873
